Recorded switch fluorescence ratio, one value per entry.
System: ATP;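 note: ATP exposure 15 min at 22 °C before imaging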
protocol_summary: switch fluorescence ratio, 500 uM ATP over buffer (Cy3 cluster intensity, sum of 5 cycles each) (fold (ratio)); higher = stronger signal-on switching upon ATP binding; sequences stand for … in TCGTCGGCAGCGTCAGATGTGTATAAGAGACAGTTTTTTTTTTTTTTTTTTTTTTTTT…TC
run_parameters: aptamer strand: ATP DNA aptamer (quencher-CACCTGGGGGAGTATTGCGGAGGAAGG + anchor), 100 nM annealed; ATP concentration: 500 uM
test_readout: switch fluorescence ratio

>  <sequence_content>
TTAACCGTTT

>  <test_readout>
switch fluorescence ratio

>  <experimental_result>
1.09

$$$$
>  <sequence_content>
CGTTTATGAG

>  <test_readout>
switch fluorescence ratio

>  <experimental_result>
1.02

$$$$
>  <sequence_content>
TATGTCATCG

>  <test_readout>
switch fluorescence ratio

>  <experimental_result>
1.01

$$$$
>  <sequence_content>
ACAAGGGTTC

>  <test_readout>
switch fluorescence ratio

>  <experimental_result>
1

$$$$
>  <sequence_content>
TGTTAGTCTT

>  <test_readout>
switch fluorescence ratio

>  <experimental_result>
0.969

$$$$
>  <sequence_content>
TAGCTCGGGA

>  <test_readout>
switch fluorescence ratio

>  <experimental_result>
0.974

$$$$
>  <sequence_content>
TTATTGCTTT

>  <test_readout>
switch fluorescence ratio

>  <experimental_result>
1

$$$$

* * *

Tested on: ATP;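 note: ATP exposure 15 min at 22 °C before imaging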
protocol_summary: switch fluorescence ratio, 500 uM ATP over buffer (Cy3 cluster intensity, sum of 5 cycles each) (fold (ratio)); higher = stronger signal-on switching upon ATP binding; sequences stand for … in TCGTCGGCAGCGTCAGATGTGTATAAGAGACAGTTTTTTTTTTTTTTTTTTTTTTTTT…TC
run_parameters: aptamer strand: ATP DNA aptamer (quencher-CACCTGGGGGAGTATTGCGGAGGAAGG + anchor), 100 nM annealed; ATP concentration: 500 uM
Recorded switch fluorescence ratio, one value per entry.

>  <sequence_content>
GTAGCTATAT

>  <switch fluorescence ratio>
4.08

$$$$
>  <sequence_content>
TTTTATAATG

>  <switch fluorescence ratio>
1.04

$$$$
>  <sequence_content>
ATTATCGGGA

>  <switch fluorescence ratio>
1.02

$$$$
>  <sequence_content>
AACGGAAAGG

>  <switch fluorescence ratio>
1.01

$$$$
>  <sequence_content>
CGTCACATGT

>  <switch fluorescence ratio>
1.01

$$$$
>  <sequence_content>
CCTTGTATAA

>  <switch fluorescence ratio>
1.07

$$$$
>  <sequence_content>
ATGAAGAGGG

>  <switch fluorescence ratio>
0.997

$$$$

* * *

Tested on: ATP;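 note: ATP exposure 15 min at 22 °C before imaging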
protocol_summary: switch fluorescence ratio, 500 uM ATP over buffer (Cy3 cluster intensity, sum of 5 cycles each) (fold (ratio)); higher = stronger signal-on switching upon ATP binding; sequences stand for … in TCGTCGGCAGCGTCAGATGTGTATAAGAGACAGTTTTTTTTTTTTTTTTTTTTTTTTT…TC
run_parameters: aptamer strand: ATP DNA aptamer (quencher-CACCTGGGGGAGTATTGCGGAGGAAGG + anchor), 100 nM annealed; ATP concentration: 500 uM

>  <sequence_content>
GCGGGAATGG

>  <switch fluorescence ratio>
1.02

$$$$
>  <sequence_content>
AATTTAGTAT

>  <switch fluorescence ratio>
0.996

$$$$
>  <sequence_content>
TTTATTGTCA

>  <switch fluorescence ratio>
0.987

$$$$
>  <sequence_content>
AATAGGAAGG

>  <switch fluorescence ratio>
1.01

$$$$
>  <sequence_content>
GGTGGGGGT

>  <switch fluorescence ratio>
1.35

$$$$
>  <sequence_content>
TTCATGGACA

>  <switch fluorescence ratio>
0.99

$$$$
>  <sequence_content>
TTTTGTTTCA

>  <switch fluorescence ratio>
1

$$$$
>  <sequence_content>
CGTATGCAAA

>  <switch fluorescence ratio>
1.06

$$$$
>  <sequence_content>
GTTTGTATTA

>  <switch fluorescence ratio>
0.996

$$$$
>  <sequence_content>
GGCAATTGTA

>  <switch fluorescence ratio>
1.03

$$$$
>  <sequence_content>
TCGGGTCGGG

>  <switch fluorescence ratio>
1

$$$$
>  <sequence_content>
ACTAGGATGG

>  <switch fluorescence ratio>
0.99

$$$$
>  <sequence_content>
TATTGCCAGG

>  <switch fluorescence ratio>
1.1

$$$$
>  <sequence_content>
GGGGGAAAGC

>  <switch fluorescence ratio>
0.984

$$$$
>  <sequence_content>
GGGGTGAAT

>  <switch fluorescence ratio>
1.01

$$$$
>  <sequence_content>
CGGTTCGGCT

>  <switch fluorescence ratio>
1.04

$$$$
>  <sequence_content>
TCCCCCTGTT

>  <switch fluorescence ratio>
1.01

$$$$
>  <sequence_content>
TCTAGACGTC

>  <switch fluorescence ratio>
0.997

$$$$
>  <sequence_content>
GCCGTTGTGC

>  <switch fluorescence ratio>
0.984

$$$$
>  <sequence_content>
CAATATATTT

>  <switch fluorescence ratio>
0.982

$$$$
>  <sequence_content>
TTTGTTCTT

>  <switch fluorescence ratio>
1

$$$$
>  <sequence_content>
CGATGGCGAC

>  <switch fluorescence ratio>
1.02

$$$$
>  <sequence_content>
TCATGTTGGA

>  <switch fluorescence ratio>
0.977

$$$$
>  <sequence_content>
TTTCAGGTCC

>  <switch fluorescence ratio>
1.03

$$$$
>  <sequence_content>
GCTGGCACAC

>  <switch fluorescence ratio>
1.04

$$$$
>  <sequence_content>
AGTGTTGTGC

>  <switch fluorescence ratio>
1.01

$$$$
>  <sequence_content>
CCAGGAGTCA

>  <switch fluorescence ratio>
1.03

$$$$
>  <sequence_content>
GAGAAGTTTG

>  <switch fluorescence ratio>
1.01

$$$$
>  <sequence_content>
AAAAGAGGGG

>  <switch fluorescence ratio>
1

$$$$
>  <sequence_content>
TTCGTTCTTG

>  <switch fluorescence ratio>
0.964

$$$$
>  <sequence_content>
CGGAGCAGTG

>  <switch fluorescence ratio>
1.75

$$$$
>  <sequence_content>
GCGTGTGAGC

>  <switch fluorescence ratio>
1

$$$$
>  <sequence_content>
ATTTTTGGCA

>  <switch fluorescence ratio>
0.995

$$$$
>  <sequence_content>
AATGTGGCGC

>  <switch fluorescence ratio>
0.964

$$$$
>  <sequence_content>
GGGTGGAGCT

>  <switch fluorescence ratio>
1

$$$$

* * *

System: ATP;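 note: ATP exposure 15 min at 22 °C before imaging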
protocol_summary: switch fluorescence ratio, 500 uM ATP over buffer (Cy3 cluster intensity, sum of 5 cycles each) (fold (ratio)); higher = stronger signal-on switching upon ATP binding; sequences stand for … in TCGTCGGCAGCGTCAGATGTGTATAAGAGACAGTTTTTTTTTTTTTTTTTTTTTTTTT…TC
run_parameters: aptamer strand: ATP DNA aptamer (quencher-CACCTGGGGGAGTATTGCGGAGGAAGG + anchor), 100 nM annealed; ATP concentration: 500 uM
Recorded switch fluorescence ratio, one value per entry.
test_readout: switch fluorescence ratio

>  <sequence_content>
TAACAGGTAT

>  <experimental_result>
1

$$$$
>  <sequence_content>
TACGGGGTGC

>  <experimental_result>
1.07

$$$$
>  <sequence_content>
CGGGGTCCTA

>  <experimental_result>
1.01

$$$$
>  <sequence_content>
TTCGTAGTTG

>  <experimental_result>
0.992

$$$$
>  <sequence_content>
GTGTGACGGT

>  <experimental_result>
0.949

$$$$
>  <sequence_content>
GGTCTCAAGA

>  <experimental_result>
0.993

$$$$
>  <sequence_content>
CTTAGATTCT

>  <experimental_result>
0.993

$$$$
>  <sequence_content>
TACCAGCGCT

>  <experimental_result>
0.993

$$$$
>  <sequence_content>
TCTGGAATTG

>  <experimental_result>
1.01

$$$$
>  <sequence_content>
TTTTTCAAGT

>  <experimental_result>
1.1

$$$$
>  <sequence_content>
TCGGCCAGTT

>  <experimental_result>
1.01

$$$$
>  <sequence_content>
TCCGTCACTA

>  <experimental_result>
1.44

$$$$
>  <sequence_content>
AGATGGCATG

>  <experimental_result>
0.987

$$$$
>  <sequence_content>
CTTGGGAATA

>  <experimental_result>
1.01

$$$$
>  <sequence_content>
TTTGGAATAT

>  <experimental_result>
1.04

$$$$
>  <sequence_content>
AATTTAAATT

>  <experimental_result>
1

$$$$
>  <sequence_content>
CGTAGATACA

>  <experimental_result>
1.03

$$$$
>  <sequence_content>
TTTGTGATTA

>  <experimental_result>
0.995

$$$$
>  <sequence_content>
CTTTTAATAG

>  <experimental_result>
1.08

$$$$
>  <sequence_content>
TACCTTCTTG

>  <experimental_result>
1.18

$$$$
>  <sequence_content>
TGTTTTAAAT

>  <experimental_result>
0.978

$$$$
>  <sequence_content>
ACATTGTGCG

>  <experimental_result>
0.969

$$$$
>  <sequence_content>
GATTGGCGCG

>  <experimental_result>
1.01

$$$$
>  <sequence_content>
CTGTCTCAAG

>  <experimental_result>
0.97

$$$$
>  <sequence_content>
TGAGTTTGTT

>  <experimental_result>
1.02

$$$$
>  <sequence_content>
TTTATGAAAT

>  <experimental_result>
1.12

$$$$
>  <sequence_content>
GGTTATCGTA

>  <experimental_result>
1.02

$$$$
>  <sequence_content>
GCTGATGATA

>  <experimental_result>
0.967

$$$$
>  <sequence_content>
CTGGTTGGGT

>  <experimental_result>
1.01

$$$$
>  <sequence_content>
TGTTGGAGGG

>  <experimental_result>
1.04

$$$$
>  <sequence_content>
TGTGGATGTC

>  <experimental_result>
0.977

$$$$
>  <sequence_content>
TTGAGTGGGA

>  <experimental_result>
0.989

$$$$
>  <sequence_content>
TTTTAGGGTA

>  <experimental_result>
1.03

$$$$
>  <sequence_content>
GAACGGACAC

>  <experimental_result>
1.45

$$$$
>  <sequence_content>
TAATTGAAAA

>  <experimental_result>
1.14

$$$$
>  <sequence_content>
CCTTTTAGTT

>  <experimental_result>
0.988

$$$$
>  <sequence_content>
GCCGGGAGTC

>  <experimental_result>
1

$$$$
>  <sequence_content>
TAGAGGGGAA

>  <experimental_result>
1.02

$$$$
>  <sequence_content>
TACTTTGTGA

>  <experimental_result>
1.1

$$$$

Origin of the recorded values: the supplement of paper PMC10126150
